- ASSAY_SYSTEM: Factor XIa (Homo sapiens)
- Construct: purchased Haematologic Technologies Inc. (Essex Jct., Vt.)
- Sequence (P03951 388-625 limits assumed): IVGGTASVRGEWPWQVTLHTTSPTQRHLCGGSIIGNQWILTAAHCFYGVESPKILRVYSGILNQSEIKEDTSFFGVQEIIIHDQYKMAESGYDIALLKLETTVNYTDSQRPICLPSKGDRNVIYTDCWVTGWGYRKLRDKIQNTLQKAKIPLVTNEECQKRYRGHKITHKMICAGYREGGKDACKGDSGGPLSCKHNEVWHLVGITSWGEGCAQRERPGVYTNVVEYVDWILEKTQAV
- Sequence (P03951 19-387 limits assumed): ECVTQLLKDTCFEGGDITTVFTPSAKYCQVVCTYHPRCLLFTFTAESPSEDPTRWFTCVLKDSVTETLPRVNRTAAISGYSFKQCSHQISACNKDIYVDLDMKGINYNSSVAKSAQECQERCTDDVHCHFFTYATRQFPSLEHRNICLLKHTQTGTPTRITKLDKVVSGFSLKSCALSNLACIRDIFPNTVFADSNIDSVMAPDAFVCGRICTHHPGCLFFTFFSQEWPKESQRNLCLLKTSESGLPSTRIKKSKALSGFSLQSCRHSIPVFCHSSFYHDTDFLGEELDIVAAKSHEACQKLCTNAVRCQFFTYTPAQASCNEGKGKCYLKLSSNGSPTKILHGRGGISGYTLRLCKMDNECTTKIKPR
- ASSAY_DETAILS: Apparent equilibrium dissociation constant (Ki*) with FXIa
- Type: biochemical
- RUN_PARAMETERS: at least 3 independent measurements
Bridges are numbered along the chain shown (N, C = ends). Where no end group is shown, it is not given here.
# True = Ki below 6 nM (exclusive); False = Ki at/above 6 nM

>>> category_label("VREVCSEQAEDGHCRAAHPRWYFDVTEGKCAPFYYGGCGGNRNNFDTEEYCAAVCGSA (disulfide 5-55, 14-38, 30-51) [KALI-DY]")
"False"
>>> category_label("VREVCSEQAEEGHCRAAHPRWYFDVTEGKCAPFFYGGCGGNRNNFDTEEYCAAVCGSA (disulfide 5-55, 14-38, 30-51) [KALI-E]")
"True"
>>> category_label("VREVCSEQAEEGHCRAAHPRWYFDVTEGKCAPFYYGGCGGNRNNFDTEEYCAAVCGSA (disulfide 5-55, 14-38, 30-51) [KALI-EY]")
"False"
>>> category_label("VREVCSEQAEPGHCRAAHPRWYFDVTEGKCAPFYYGGCGGNRNNFDTEEYCAAVCGSA (disulfide 5-55, 14-38, 30-51) [KALI-PY]")
"False"
>>> category_label("VREVCSEQAEPGHCRAAHPRWYFDVTEGKCAPFFYGGCGGNRNNFDTEEYCAAVCGSA (disulfide 5-55, 14-38, 30-51) [KALI-P]")
"False"
>>> category_label("VREVCSEQAEDGHCRAAHPRWYFDVTEGKCAPFVYGGCGGNRNNFDTEEYCAAVCGSA (disulfide 5-55, 14-38, 30-51) [KALI-DV]")
"True"
>>> category_label("VREVCSEQAEDGHCRAAHPRWYFDVTEGKCAPFFYGGCGGNRNNFDTEEYCAAVCGSA (disulfide 5-55, 14-38, 30-51) [KALI-D]")
"True"
>>> category_label("VREVCSEQAEPGHCRAAHPRWYFDVTEGKCAPFVYGGCGGNRNNFDTEEYCAAVCGSA (disulfide 5-55, 14-38, 30-51) [KALI-PV]")
"True"

====

- ASSAY_SYSTEM: plasmin (Homo sapiens, UniProt P00747)
- Construct: Human plasmin, S-2302, S-2251, and S-2366 were purchased from Kabi Vitrum (Sweden); purchased Kabi Vitrum (Sweden)
- Sequence (P00747 581-810 limits assumed): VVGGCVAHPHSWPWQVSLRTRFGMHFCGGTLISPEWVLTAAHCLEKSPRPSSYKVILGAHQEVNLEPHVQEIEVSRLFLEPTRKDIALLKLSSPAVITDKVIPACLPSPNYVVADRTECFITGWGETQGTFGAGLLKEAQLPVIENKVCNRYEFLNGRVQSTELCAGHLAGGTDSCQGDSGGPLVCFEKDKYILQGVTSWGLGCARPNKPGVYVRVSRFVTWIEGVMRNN
- Sequence (P00747 97-580 limits assumed): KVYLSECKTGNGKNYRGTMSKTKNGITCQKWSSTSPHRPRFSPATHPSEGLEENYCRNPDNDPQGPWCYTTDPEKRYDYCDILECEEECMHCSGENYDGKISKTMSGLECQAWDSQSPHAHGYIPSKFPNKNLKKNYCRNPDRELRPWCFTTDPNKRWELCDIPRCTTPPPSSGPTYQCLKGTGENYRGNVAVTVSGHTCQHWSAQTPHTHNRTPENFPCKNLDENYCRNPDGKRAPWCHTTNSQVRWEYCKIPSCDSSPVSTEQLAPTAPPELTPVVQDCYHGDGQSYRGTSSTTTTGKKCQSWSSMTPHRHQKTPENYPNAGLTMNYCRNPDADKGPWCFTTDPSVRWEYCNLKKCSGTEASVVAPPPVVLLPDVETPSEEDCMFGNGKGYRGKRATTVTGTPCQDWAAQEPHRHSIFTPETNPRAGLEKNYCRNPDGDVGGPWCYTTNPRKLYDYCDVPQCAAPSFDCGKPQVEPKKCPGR
- ASSAY_DETAILS: Specificity assay, plasmin
- Type: biochemical
- RUN_PARAMETERS: 100 nM inhibitor; plasmin 32 nM, 0.7 mM S2251
Form field: fraction of remaining proteolytic activity, plasmin (one value per entry).
READOUT_NAME: fraction of remaining proteolytic activity, plasmin

>>> meas_value("KALI-30: APPI Kunitz domain mutant, R1 EGHCRAAILR2 FR3 (SEQ ID NO: 5) (VREVCSEQAEEGHCRAAILRWYFDVTEGKCAPFFYGGCGGNRNNFDTEEYCAAVCGSA)")
0.53
>>> meas_value("KALI-13: APPI Kunitz domain mutant, R1 SGHCRAAIPR2 FR3 (SEQ ID NO: 1) (VREVCSEQAESGHCRAAIPRWYFDVTEGKCAPFFYGGCGGNRNNFDTEEYCAAVCGSA)")
0.65
>>> meas_value("KALI-8: APPI Kunitz domain mutant, R1 LGHCRAAIPR2 FR3 (SEQ ID NO: 3) (VREVCSEQAELGHCRAAIPRWYFDVTEGKCAPFFYGGCGGNRNNFDTEEYCAAVCGSA)")
0.83
>>> meas_value("KALI-46: APPI Kunitz domain mutant, R1 EGRCRASILR2 FR3 (SEQ ID NO: 33) (VREVCSEQAEEGRCRASILRWYFDVTEGKCAPFFYGGCGGNRNNFDTEEYCAAVCGSA)")
0.64
>>> meas_value("KALI-48: APPI Kunitz domain mutant, R1 TGHCRAAIPR2 FR3 (SEQ ID NO: 2) (VREVCSEQAETGHCRAAIPRWYFDVTEGKCAPFFYGGCGGNRNNFDTEEYCAAVCGSA)")
0.23
